Measured uptake LUNGS, listed per entry for reference.
System: B16F0 melanoma tumour
measurement.notes: Biodistribution in B16 melanoma bearing mice
Assay type: in vivo, C57BL/6J mice
measurement.context: B16 melanoma bearing mice, 6 h
Write the value in % ID/g as a bare number.

Check out these entries, answers already filled in.
- CCN(CC)CCNC(=O)c1ccc(F)nc1 [[^18F]MEL2]: 0.066
- CCN(CC)CCNC(=O)c1ccnc(F)c1 [[^18F]MEL8]: 0.14

*Q* Fill blank: measured uptake LUNGS of the molecule CCCCN(C)CCCCNC(=O)c1ccc(F)nc1 [[^18F]MEL4] is ____.
*A* 2.23

*Q* Fill blank: measured uptake LUNGS of the molecule CCN(CC)CCNC(=O)c1cccnc1F [[^18F]MEL6] is ____.
*A* 0.2

###

System: B16F0 melanoma tumour
measurement.notes: Biodistribution in B16 melanoma bearing mice
Type: in vivo, C57BL/6J mice
measurement.context: B16F0 tumour, C57BL/6J mice, 1 h, mean ± S.D., n = 5
Measured Organ distribution Spleen, listed per entry for reference.
Answer format: number, then unit.

• CCCN(CCC)CCCCNC(=O)c1cncc(I)c1 [[^123I]17] = 0.54 ± 0.09 % ID/organ
• CCN(CC)CCNC(=O)c1ccc(I)nc1 [[^123I]14] = 0.31 ± 0.07 % ID/organ
• O=C(c1cncc(I)c1)N1CCN(Cc2ccccc2)CC1 [[^123I]20] = 0.05 ± 0.01 % ID/organ

*Q* Fill blank: measured Organ distribution Spleen of the molecule CCN(CC)CCNC(=O)c1cncc(I)c1 [[^123I]11] is ____.
*A* 0.16 ± 0.16 % ID/organ

###

System: B16F0 melanoma tumour
measurement.notes: Biodistribution in B16 melanoma bearing mice
Format: in vivo, C57BL/6J mice
measurement.context: B16 melanoma bearing mice, 1 h
property.name: uptake EYES (% ID/g)
Write the value in % ID/g as a bare number.

Check out these entries, answers already filled in.
• CCN(CC)CCNC(=O)c1ccnc(F)c1 [[^18F]MEL8] = 23.66
• CCCCN(C)CCCCNC(=O)c1ccc(F)nc1 [[^18F]MEL4] = 12.65
• CCN(CC)CCNC(=O)c1ccc(F)nc1 [[^18F]MEL2] = 18.808

Let's switch to this molecule now.
*Q* Any idea what uptake EYES came out for CCN(CC)CCNC(=O)c1cccnc1F [[^18F]MEL6] on B16F0 melanoma tumour?
*A* 38.0

###

Measured uptake HEART, listed per entry for reference.
Tested on: B16F0 melanoma tumour
measurement.notes: Biodistribution in B16 melanoma bearing mice
Type: in vivo, C57BL/6J mice
measurement.context: B16 tumour, C57BL/6J mice, 6 h, mean ± SD, n = 5
Method: Animal experiments were performed in compliance with the NHMRC Australian Code of Practice for the care and use of animals for scientific purposes. […] Eleven days (B16F0 melanoma) and 25 days (A375 human melanoma) after tumour transplantation, the [^18F]nicotinamides (0.5-1.5 MBq, 100 μl) and [^123I]nicotinamide (0.37-0.74 MBq, 100 μl) derivatives were injected intravenously via the tail vein into mice (15-18 g). […] Selected organs were weighed and their radioactivity measured with a γ-counter. […]
Write the value in % ID/g as a bare number.

- CCCN(CCC)CCCCNC(=O)c1cncc(I)c1 [[^123I]17]: 0.8

*Q* Any idea what uptake HEART came out for CCN(CC)CCNC(=O)c1ccc(I)nc1 [[^123I]14] on B16F0 melanoma tumour?
*A* 1.1

*Q* Any idea what uptake HEART came out for CCN(CC)CCNC(=O)c1cncc(I)c1 [[^123I]11] on B16F0 melanoma tumour?
*A* 0.26

*Q* Any idea what uptake HEART came out for O=C(c1cncc(I)c1)N1CCN(Cc2ccccc2)CC1 [[^123I]20] on B16F0 melanoma tumour?
*A* 0.24

All values here come from patent US20110178396A1.
